Biological target: S100B (Homo sapiens, UniProt P04271)
Construct: made in house; host or cells: Escherichia coli BL21(DE3)
Sequence (P04271 whole entry): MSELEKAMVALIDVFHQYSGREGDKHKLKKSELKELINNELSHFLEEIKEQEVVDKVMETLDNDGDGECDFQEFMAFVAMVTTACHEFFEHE
Test: Pull-down assay with immobilized protein and LSM libraries
Assay type: binding
Details: H12 library; 1:1 binding assumed; read-out: Surface mapping KD (apparent)
Procedure: Pull-down assays with immobilized test proteins and foldameric LSM libraries were carried out. Proteins were equilibrated with LSM probes, and equilibrium bound fractions (FB) were determined from the unbound fractions measured by HPLC-MS methods. Hits were corrected with background binding of the resin. […] MS data analysis. […] Using these processing setups, all raw data files were reprocessed together and analyzed. […]
pKd: −log10 of the molar value.
Decision: pKd >= 4 yields yes, all other cases yield no.

>>> category_label("NCCCC[C@@H](CC(=O)N[C@H]1CCC[C@@H]1C(=O)N[C@H]1CCC[C@@H]1C(=O)N[C@@H](CCC(N)=O)CC(=O)N[C@H]1CCC[C@@H]1C(=O)N[C@H]1CCC[C@@H]1C(N)=O)NC(=O)[C@H]1CCC[C@@H]1NC(=O)[C@H]1CCC[C@@H]1N")
"no"
>>> category_label("NCCCC[C@@H](CC(=O)N[C@H]1CCC[C@@H]1C(=O)N[C@H]1CCC[C@@H]1C(N)=O)NC(=O)[C@H]1CCC[C@@H]1NC(=O)[C@H]1CCC[C@@H]1NC(=O)C[C@H](CO)NC(=O)[C@H]1CCC[C@@H]1NC(=O)[C@H]1CCC[C@@H]1N")
"no"
>>> category_label("NC(=O)CC[C@@H](CC(=O)N[C@H]1CCC[C@@H]1C(=O)N[C@H]1CCC[C@@H]1C(N)=O)NC(=O)[C@H]1CCC[C@@H]1NC(=O)[C@H]1CCC[C@@H]1NC(=O)C[C@H](Cc1c[nH]c2ccccc12)NC(=O)[C@H]1CCC[C@@H]1NC(=O)[C@H]1CCC[C@@H]1N")
"yes"
>>> category_label("CSCC[C@@H](CC(=O)N[C@H]1CCC[C@@H]1C(=O)N[C@H]1CCC[C@@H]1C(=O)N[C@H](CC(=O)N[C@H]1CCC[C@@H]1C(=O)N[C@H]1CCC[C@@H]1C(N)=O)Cc1c[nH]c2ccccc12)NC(=O)[C@H]1CCC[C@@H]1NC(=O)[C@H]1CCC[C@@H]1N")
"yes"
>>> category_label("NC(=O)C[C@@H](CC(=O)N[C@H]1CCC[C@@H]1C(=O)N[C@H]1CCC[C@@H]1C(=O)N[C@H](CC(=O)N[C@H]1CCC[C@@H]1C(=O)N[C@H]1CCC[C@@H]1C(N)=O)Cc1c[nH]c2ccccc12)NC(=O)[C@H]1CCC[C@@H]1NC(=O)[C@H]1CCC[C@@H]1N")
"no"
>>> category_label("NCCCC[C@@H](CC(=O)N[C@H]1CCC[C@@H]1C(=O)N[C@H]1CCC[C@@H]1C(=O)N[C@H](CC(=O)N[C@H]1CCC[C@@H]1C(=O)N[C@H]1CCC[C@@H]1C(N)=O)Cc1c[nH]c2ccccc12)NC(=O)[C@H]1CCC[C@@H]1NC(=O)[C@H]1CCC[C@@H]1N")
"yes"

---

Molecular target: CaM (Bos taurus, UniProt P62157)
Construct: made in house; host or cells: E. coli BL21 (DE3)
Assay: Pull-down assay with immobilized protein and LSM libraries
Format: binding, bovine
Conditions: H14 library; 1:2 stoichiometry assumed; read-out: Surface mapping KD (apparent)
pKd: −log10 of the molar value.
Decision: pKd >= 4 yields yes (1), all other cases yield no (0).

>>> category_label("CSCC[C@@H](CC(=O)N[C@H]1CCCC[C@@H]1C(=O)N[C@H]1CCCC[C@@H]1C(=O)N[C@H](CC(=O)N[C@H]1CCCC[C@@H]1C(N)=O)[C@@H](C)O)NC(=O)[C@H]1CCCC[C@@H]1N [H14 MT]")
"yes (1)"
>>> category_label("CC[C@H](C)[C@@H](CC(=O)N[C@H]1CCCC[C@@H]1C(=O)N[C@H]1CCCC[C@@H]1C(=O)N[C@@H](CCSC)CC(=O)N[C@H]1CCCC[C@@H]1C(N)=O)NC(=O)[C@H]1CCCC[C@@H]1N [H14 IM]")
"yes (1)"
>>> category_label("CC[C@H](C)[C@@H](CC(=O)N[C@H]1CCCC[C@@H]1C(=O)N[C@H]1CCCC[C@@H]1C(=O)N[C@@H](CC(N)=O)CC(=O)N[C@H]1CCCC[C@@H]1C(N)=O)NC(=O)[C@H]1CCCC[C@@H]1N [H14 IN]")
"no (0)"
>>> category_label("CC(C)[C@@H](CC(=O)N[C@H]1CCCC[C@@H]1C(N)=O)NC(=O)[C@H]1CCCC[C@@H]1NC(=O)[C@H]1CCCC[C@@H]1NC(=O)C[C@H](Cc1ccc(O)cc1)NC(=O)[C@H]1CCCC[C@@H]1N [H14 YV]")
"yes (1)"
>>> category_label("NC(=O)C[C@@H](CC(=O)N[C@H]1CCCC[C@@H]1C(N)=O)NC(=O)[C@H]1CCCC[C@@H]1NC(=O)[C@H]1CCCC[C@@H]1NC(=O)C[C@H](CO)NC(=O)[C@H]1CCCC[C@@H]1N [H14 SN]")
"no (0)"

Data credit: paper PMC8162404
